Assay: probe aNOTCH2 binding on compound microarray – biochemical, small-molecule microarray, 635/667 nm fluorescence, primary screen (AID 1121);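 note: score merges feature fluorescence read at 667 nm with its signal to noise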
Conditions: higher = more signal
We use -0.1 as the dividing line for composite z-score: on or above the line is 1, below is 0.

INSERT INTO measurements (molecule, category) VALUES
  ('Cc1ccccc1C(O)C1C=CC2C(=O)N(C)C(=O)C2N1Nc1ccc([N+](=O)[O-])cc1[N+](=O)[O-] (configuration not stated)', 0),
  ('CC(=O)NCCCC[C@@H]1NC(=O)[C@H]2C[C@@H](C(=O)NCCCCCN)[C@@H](c3cccc(OCCO)c3)N2C1=O', 1),
  ('C=CCC(OC(C)=O)[C@@H]1[C@@H](N(Cc2ccc(-c3ccccc3)cc2)C(=O)c2cccc3ccccc23)c2cc(OCCCO)ccc2N1C(=O)c1ccc2ccccc2n1 (some centres not stated)', 0),
  ('COc1ccc(C(=O)Nc2ccc3c(c2)[C@]2(O[C@@H](CCO)[C@H]([Si](C)(C)c4ccc(OC)cc4)[C@H]2C)C(=O)N3Cc2ccccc2)cc1', 0),
  ('CC(C)[Si](C#C[Si](C(C)C)(C(C)C)C(C)C)(O[C@H](C)c1cn(Cc2cccc(Cl)c2)nn1)C(C)C', 0),
  ('CC(C)=CCCC(C)=CC(O)C1C=CC2C(=O)N(c3ccccc3)C(=O)C2N1Nc1ccc([N+](=O)[O-])cc1 (configuration not stated)', 1),
  ('CC1CC/C=C\[C@H]2OC34C=CCN(Cc5ccccc5)C(=O)[C@H]3N(CCO)C(=O)[C@@H]4C2C(=O)O1 (some centres not stated)', 0);

---

Experiment: JC-1 mitochondrial signal, unstimulated MM1S myeloma – cell-based, JC-1 fluorescence, 24 h, 100 nL compound, profiling panel (AID 1170); note: test concentration not given here
Conditions: MM1S mitochondrial potential, higher = more signal
We use -0.06 as the dividing line for z-score: on or above the line is criterion met, below is criterion not met.

INSERT INTO results (molecule, category) VALUES
  ('C[C@@]1([C@@H](NC(=O)c2cccs2)c2ccc(-c3ccccc3)cc2)C[C@H]1C1CCCCC1', 'criterion not met'),
  ('CC(C)c1ccc(NN2C(C(O)c3ccccn3)C=CC3C(=O)N(c4ccccc4)C(=O)C32)cc1 (configuration not stated)', 'criterion not met'),
  ('COCCOC(=O)N1C(=O)[C@@]2(c3cc(C#CCC(C(=O)OC)C(=O)OC)ccc31)[C@H](C(=O)N1CCCCCCC1)[C@H]1C(=O)O[C@H](c3ccccc3)[C@H](c3ccccc3)N1[C@@H]2c1ccc(O)cc1', 'criterion met'),
  ('COCCCNC(=O)[C@@H]1c2ccccc2C(=O)N(c2ccc(C)cn2)[C@H]1c1ccc(CO)cc1', 'criterion met'),
  ('COCCCNC(=O)[C@@H]1c2ccccc2C(=O)N(Cc2cc(F)cc(C(F)(F)F)c2)[C@H]1c1ccc(CO)cc1', 'criterion not met'),
  ('C[C@]12C(=O)N(CCCCCO)[C@@H]3C(=O)N(c4ccc(Cl)cc4)CC=CC31O[C@@H]1/C=C\CCCOC(=O)C12 (some centres not stated)', 'criterion met'),
  ('CC(=O)NCCCC[C@@H]1NC(=O)[C@H]2C[C@@H](C(=O)NCCCCCN)[C@@H](c3cccc(OCCO)c3)N2C1=O', 'criterion met');

---

Assay: small molecules captured by biotinylated probe aFGF2 – biochemical, small-molecule microarray, fluorescence 635/667, stem cell growth factor project, primary screen (AID 1067);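 note: measures binding of biotinylated aFGF2 protein to printed compounds on slides; z-score merges feature fluorescence and signal-to-noise across triplicate slides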
Conditions: higher = more signal
We use 0.1 as the dividing line for composite z-score: on or above the line is Yes, below is No.

INSERT INTO results (compound, category) VALUES
  ('[N-]=[N+]=NCc1ccccc1[C@H]1OC(c2ccc(OCCCO)cc2)=N[C@@]1(Cc1ccccc1N=[N+]=[N-])C(=O)N1CCCCC1', 'Yes'),
  ('COCCCNC(=O)[C@]1(Cc2ccccc2CN=[N+]=[N-])N=C(c2ccc(OCCCO)cc2)O[C@@H]1c1ccccc1CN=[N+]=[N-]', 'Yes'),
  ('CCCC[C@H]1OB(O)C[C@H]2C1=C(COc1ccccc1)Cn1c(=O)n(-c3ccccc3)c(=O)n12', 'No'),
  ('O=C1c2ccccc2[C@](Cc2ccccc2I)(C(=O)NC2CC2)[C@H](c2ccc(CO)cc2)N1Cc1ccccc1Cl', 'Yes'),
  ('C=CCOC(=O)[C@@H]1[C@H]2C(=O)O[C@H](c3ccccc3)[C@H](c3ccccc3)N2[C@H](c2ccc(OCCOC(=O)[C@H]3C[C@H]4C(=O)N[C@@H](Cc5ccccc5)C(=O)N4[C@H]3c3cccc(OCCO)c3)cc2)[C@@]12C(=O)Nc1ccc(I)cc12', 'No'),
  ('C=CC[C@]1(C(=O)N(C)C)N=C(c2ccc(OCCCO)cc2)O[C@H]1c1ccccc1', 'Yes'),
  ('COCCOC(=O)N1C(=O)[C@@]2(c3cc(C#Cc4ccc(OC)cc4)ccc31)[C@H](C(=O)N1CCc3cc(OC)c(OC)cc3C1)[C@H]1C(=O)O[C@H](c3ccccc3)[C@H](c3ccccc3)N1[C@@H]2c1ccc(O)cc1', 'No'),
  ('CC(C)(C)OC(=O)CC[C@]1(C(=O)O)COC(c2ccc(OCCCO)cc2)=N1', 'No'),
  ('CCOc1cc(C(O)C2C=CC3C(=O)NC(=O)C3N2Nc2ccccn2)ccc1O (centres undefined)', 'No'),
  ('CCCN1C(=O)[C@@]2(Cc3ccccc3)N=C(c3ccc(OCCCO)cc3)O[C@H]2c2ccccc21', 'No'),
  ('COc1ccc(C#Cc2ccc3c(c2)[C@]2(C(=O)N3)[C@H](C(=O)O)[C@H]3C(=O)O[C@H](c4ccccc4)[C@H](c4ccccc4)N3[C@@H]2c2ccc(OCCO)cc2)cc1', 'No'),
  ('CCCc1cc2c(n1Cc1ccc(OC)cc1)C(C)C1CN(C(=O)c3ccccc3)C(C)(C(=O)OC)C21 (centres undefined)', 'Yes'),
  ('CCOC(=O)C[C@H]1[C@H](OC(=O)Cc2ccc3c(c2)OCO3)[C@@H](NC(=O)c2ccccc2)c2cc(OCCCO)ccc2N1C(=O)c1ccccc1', 'No'),
  ('CN(C)C(=O)[C@@]1(CCS(=O)(=O)c2ccccc2)N=C(c2ccc(OCCCO)cc2)O[C@H]1c1ccccc1CN=[N+]=[N-]', 'Yes');

---

Molecular target: NADPH oxidase 5 (Homo sapiens) (UniProt Q96PH1)
Sequence (Q96PH1 whole entry, looked up): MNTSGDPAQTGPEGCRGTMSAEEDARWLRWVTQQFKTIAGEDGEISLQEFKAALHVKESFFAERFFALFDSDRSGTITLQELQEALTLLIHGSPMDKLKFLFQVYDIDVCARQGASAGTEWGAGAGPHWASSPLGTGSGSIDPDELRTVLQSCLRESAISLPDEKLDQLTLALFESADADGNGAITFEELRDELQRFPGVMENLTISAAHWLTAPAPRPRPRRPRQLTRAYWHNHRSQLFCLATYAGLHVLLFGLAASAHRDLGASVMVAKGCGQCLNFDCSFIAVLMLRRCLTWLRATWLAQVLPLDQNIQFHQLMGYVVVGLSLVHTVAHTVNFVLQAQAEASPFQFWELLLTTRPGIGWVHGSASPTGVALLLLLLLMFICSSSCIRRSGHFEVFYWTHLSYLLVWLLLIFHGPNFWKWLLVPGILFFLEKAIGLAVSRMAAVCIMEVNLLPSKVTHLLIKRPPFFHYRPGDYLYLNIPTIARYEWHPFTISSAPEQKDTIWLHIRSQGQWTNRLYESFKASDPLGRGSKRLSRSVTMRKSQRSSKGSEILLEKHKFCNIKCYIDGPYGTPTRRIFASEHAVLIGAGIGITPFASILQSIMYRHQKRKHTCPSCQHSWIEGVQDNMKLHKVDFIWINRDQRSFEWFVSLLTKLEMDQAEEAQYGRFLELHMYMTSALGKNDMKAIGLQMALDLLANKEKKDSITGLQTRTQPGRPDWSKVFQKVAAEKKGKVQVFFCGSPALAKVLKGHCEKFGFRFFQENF
Test: compounds shifting NOX5 Amplex Red fluorescence – cell-based, HEK293-NOX5, NOX inhibitor project, primary screen (AID 1161)
Conditions: HEK293-NOX5, ionomycin, 45 min, higher = more signal
We use -0.2 as the dividing line for z-score: on or above the line is true, below is false.

INSERT INTO results (compound, category) VALUES
  ('C#CCOC(=O)N[C@H](C=CCCCC)c1ccccc1', 'false'),
  ('CCCC=C(CCC)[C@@H](NC(=O)Cc1ccccc1)c1ccc(C(=O)OC)cc1', 'true'),
  ('COC(=O)C(CC#Cc1ccc2c(c1)[C@]1(C(=O)N2)[C@H](c2ccccc2OCCO)N2[C@H](c3ccccc3)[C@H](c3ccccc3)OC(=O)[C@H]2[C@@H]1C(=O)Nc1nc2ccccc2s1)C(=O)OC', 'true'),
  ('COc1cc(NN2C(C(O)c3ccc(I)cc3)C=CC3C(=O)N(C)C(=O)C32)cc(OC)c1OC (stereo not drawn)', 'false'),
  ('C=C(/C(=C/C[C@@H](OC(=O)c1ccncc1)c1cccc(OCCO)c1)c1cc(C(=O)OC)ccc1OC)C(C)C', 'false'),
  ('C/C=C/[C@@H](CCn1cc([C@H](O)c2ccccc2)nn1)[Si](C)(C)c1ccc(OC)cc1', 'false'),
  ('O=C(C=C(CC(O)c1cccc(Cl)c1)OCCF)OCCF (stereo not drawn)', 'true'),
  ('O=C(N1CCOCC1)[C@@]1(CCS(=O)(=O)c2ccccc2)COC(c2ccc(OCCCO)cc2)=N1', 'false'),
  ('C[C@@H]1ON(c2ccccc2)[C@H](c2ccccc2)[C@H]1C(=O)N1C(=O)OC[C@H]1Cc1ccccc1', 'false'),
  ('CN(C)C(=O)[C@@]1(CCS(=O)(=O)c2ccccc2)N=C(c2ccc(OCCCO)cc2)O[C@H]1c1ccccc1CN=[N+]=[N-]', 'false'),
  ('C=CCC(OC(C)=O)[C@@H]1[C@@H](N(Cc2cccc3ccccc23)C(=O)Cc2ccc(F)cc2)c2cc(OCCCO)ccc2N1C(=O)Cc1ccc(OC)cc1 (stereo partly drawn)', 'true'),
  ('C=CCC(OC(C)=O)[C@@H]1[C@@H](N(Cc2ccc(-c3ccccc3)cc2)C(=O)Cc2ccc(OC)cc2)c2cc(OCCCO)ccc2N1C(=O)c1ccc(-c2ccccc2)cc1 (stereo partly drawn)', 'true'),
  ('C=CCOC(=O)[C@@H]1[C@H]2C(=O)O[C@H](c3ccccc3)[C@H](c3ccccc3)N2[C@H](c2ccc(OCCOC(=O)[C@@H]3C[C@@H]4C(=O)N[C@@H](CCCCNC(C)=O)C(=O)N4[C@@H]3c3ccc(O)cc3)cc2)[C@@]12C(=O)Nc1ccc(I)cc12', 'true'),
  ('C=CCOC(=O)[C@H]1[C@@H]2C(=O)O[C@@H](c3ccccc3)[C@@H](c3ccccc3)N2[C@@H](c2ccc(OCCOC(=O)[C@H]3C[C@H]4C(=O)N[C@@H](CCCCN(C)C)C(=O)N4[C@H]3c3ccc(O)cc3)cc2)[C@]12C(=O)Nc1ccccc12', 'true'),
  ('CCCCC(=C=CC[C@H](O)c1cccc(OCCO)c1)C[C@H](O)COCc1ccccc1', 'false'),
  ('[N-]=[N+]=Nc1ccccc1[C@@H]1OC(c2ccc(OCCCO)cc2)=N[C@]1(CCS(=O)(=O)c1ccccc1)C(=O)NCc1ccccc1', 'true'),
  ('O=C1C2C=CC(C(O)c3cccc4ccccc34)N(Nc3ccccc3)C2C(=O)N1c1ccccc1 (stereo not drawn)', 'false'),
  ('CCCN1C(=O)[C@@]2(Cc3ccccc3)N=C(c3ccc(OCCCO)cc3)O[C@H]2c2ccccc21', 'false'),
  ('O=C1N(Cc2ccccc2)c2ccccc2[C@H]2OC(c3ccc(OCCCO)cc3)=N[C@@]12CCS(=O)(=O)c1ccccc1', 'false'),
  ('COc1ccc(CCNC(=O)[C@@H]2c3ccccc3C(=O)N(Cc3ccccc3C(F)(F)F)[C@H]2c2ccc(CO)cc2)cc1', 'false'),
  ('NC(=O)NCC#Cc1ccc2c(c1)[C@]1(C(=O)N2)[C@H](c2ccc(O)cc2)N2[C@H](c3ccccc3)[C@H](c3ccccc3)OC(=O)[C@H]2[C@@H]1C(=O)NC[C@H](O)c1ccccc1', 'true'),
  ('O=C1c2ccccc2C(=O)C2CC([C@H]3Oc4ccccc4S(=O)(=O)N4CCC[C@@H]34)=CCC12 (stereo partly drawn)', 'false'),
  ('N#Cc1ccc(NN2C(C(O)c3ccco3)C=CC3C(=O)N(c4ccccc4)C(=O)C32)cc1 (stereo not drawn)', 'false'),
  ('O=C1O[C@H](c2ccccc2)[C@H](c2ccccc2)N2[C@H]1[C@@H](C(=O)N1CCN(c3ncccn3)CC1)[C@]1(C(=O)Nc3ccc(C#CCCO)cc31)[C@H]2c1ccc(OCCO)cc1', 'true'),
  ('C=CCC(OC(C)=O)[C@@H]1[C@@H](N(Cc2ccc(-c3ccccc3)cc2)C(=O)c2cccc3ccccc23)c2cc(OCCCO)ccc2N1C(=O)c1ccc2ccccc2n1 (stereo partly drawn)', 'false'),
  ('CO[C@H]1O[C@H](CO)[C@@H](OC(=O)Nc2cccc(F)c2)[C@H](OC(=O)Nc2ccc3c(c2)OCO3)[C@H]1OC(=O)Nc1ccc2c(c1)OCO2', 'false'),
  ('COC(=O)[C@@]1(Cc2ccccc2)[C@H]2c3cc(C(=O)N4CCCC4)n(Cc4ccc(OC(F)(F)F)cc4)c3C[C@H]2CN1C(=O)c1ccccc1', 'true'),
  ('COc1ccc([Si](C)(C)[C@@H]2[C@@H](CCO)O[C@]3(C(=O)N(Cc4cccc(N5C(=O)COc6ccccc65)c4)c4ccccc43)[C@H]2C)cc1', 'true');
